# System: P388 mouse leukemia cells
# experimental-conditions: 92 h
Where a SMILES comes first, the peptide text is derived from it. [ ]: non-standard residue; d: D form. The star is where a group is joined. NHCH2CH2OH = OCCN*; For = O=C*
quantity-kind: cell viability/%

| molecule | observed |
| --- | --- |
| CNC(=O)C[C@@H](NC(=O)[C@@H](NC(=O)[C@@H](CC(C)C)NC(=O)[C@H](C)NC(=O)[C@H](NC(=O)[C@H](C)NC(=O)CNC(=O)[C@@H](NC=O)C(C)C)C(C)C)C(C)C)C(=O)N[C@@H](Cc1c[nH]c2ccccc12)C(=O)N[C@H](CC(C)C)C(=O)N[C@@H](Cc1c[nH]c2ccccc12)C(=O)N[C@@H](C(=O)N[C@@H](Cc1c[nH]c2ccccc12)C(=O)N[C@@H](C(=O)N[C@@H](Cc1c[nH]c2ccccc12)C(=O)NCCO)C(C)C)C(C)C [compound 11349] (For-VGA[dV]A[dL]V[dD](NHMe)W[dL]W[dV]W[dV]W-NHCH2CH2OH) | 34.3% |

Consider the additional molecule presented here.
[ask] cell viability/% lookup needed for CC(C)C[C@@H](NC(=O)[C@H](C)NC(=O)CNC(=O)[C@@H](NC=O)C(C)C)C(=O)N[C@@H](C)C(=O)N[C@@H](C(=O)N[C@H](C(=O)N[C@@H](C(=O)N[C@@H](Cc1c[nH]c2ccccc12)C(=O)N[C@@H](C(=O)N[C@@H](Cc1c[nH]c2ccccc12)C(=O)N[C@@H](C(=O)N[C@@H](Cc1c[nH]c2ccccc12)C(=O)N[C@@H](C(=O)N[C@@H](Cc1c[nH]c2ccccc12)C(=O)NCCO)C(C)C)C(C)C)C(C)C)C(C)C)C(C)C)C(C)C [compound 7516] (For-VGA[dL]A[dV]V[dV]W[dV]W[dV]W[dV]W-NHCH2CH2OH) , thanks.
[reply] 100.0%

----------
# Test system: P388 mouse leukemia cells
# experimental-conditions: 92 h
Where a SMILES comes first, the peptide text is derived from it. [ ]: non-standard residue; d: D form. The star is where a group is joined. NHCH2CH2OH = OCCN*; For = O=C*
Overview of recorded cell viability/% for various compounds
Put down the number, then write its unit next to it.

| compound | observed |
| --- | --- |
| CNC(=O)C[C@@H](NC(=O)[C@@H](NC(=O)[C@H](NC(=O)[C@H](C)NC(=O)[C@@H](CC(C)C)NC(=O)[C@H](C)NC(=O)CNC(=O)[C@@H](NC=O)C(C)C)C(C)C)C(C)C)C(=O)N[C@@H](Cc1c[nH]c2ccccc12)C(=O)N[C@H](CC(C)C)C(=O)N[C@@H](Cc1c[nH]c2ccccc12)C(=O)N[C@@H](C(=O)N[C@@H](Cc1c[nH]c2ccccc12)C(=O)N[C@@H](C(=O)N[C@@H](Cc1c[nH]c2ccccc12)C(=O)NCCO)C(C)C)C(C)C [compound 2932] (For-VGA[dL]A[dV]V[dD](NHMe)W[dL]W[dV]W[dV]W-NHCH2CH2OH) | 87.5% |

[ask] cell viability/% lookup needed for CC(C)C[C@@H](NC(=O)[C@H](C)NC(=O)CNC(=O)[C@@H](NC=O)C(C)C)C(=O)N[C@@H](C)C(=O)N[C@@H](C(=O)N[C@H](C(=O)N[C@@H](C(=O)N[C@@H](Cc1c[nH]c2ccccc12)C(=O)N[C@@H](C(=O)N[C@@H](Cc1c[nH]c2ccccc12)C(=O)N[C@H](CC(C)C)C(=O)N[C@@H](Cc1c[nH]c2ccccc12)C(=O)N[C@H](CC(C)C)C(=O)N[C@@H](Cc1c[nH]c2ccccc12)C(=O)NCCO)C(C)C)[C@H](C)O)C(C)C)C(C)C [compound 9832] (For-VGA[dL]A[dV]V[dT]W[dV]W[dL]W[dL]W-NHCH2CH2OH) , thanks.
[reply] 100.0%

[ask] Another: CC(C)C[C@@H](NC(=O)[C@H](Cc1c[nH]c2ccccc12)NC(=O)[C@H](NC(=O)[C@H](Cc1c[nH]c2ccccc12)NC(=O)[C@H](NC(=O)[C@@H](NC(=O)[C@H](NC(=O)[C@H](C)NC(=O)[C@H](NC(=O)[C@H](C)NC(=O)CNC(=O)[C@@H](NC=O)C(C)C)C(C)C)C(C)C)C(C)C)C(C)C)C(C)C)C(=O)N[C@@H](Cc1c[nH]c2ccccc12)C(=O)N[C@@H](C(=O)N[C@@H](Cc1c[nH]c2ccccc12)C(=O)NCCO)C(C)C [compound 6165] (For-VGA[dV]A[dV]V[dV]W[dV]W[dL]W[dV]W-NHCH2CH2OH)
[reply] 67.9%

[ask] Another: CC(C)C[C@@H](NC(=O)[C@H](C)NC(=O)CNC(=O)[C@@H](NC=O)C(C)C)C(=O)N[C@@H](C)C(=O)N[C@H](CC(C)C)C(=O)N[C@H](C(=O)N[C@H](CC(C)C)C(=O)N[C@@H](Cc1c[nH]c2ccccc12)C(=O)N[C@@H](C(=O)N[C@@H](Cc1c[nH]c2ccccc12)C(=O)N[C@H](CC(C)C)C(=O)N[C@@H](Cc1c[nH]c2ccccc12)C(=O)N[C@@H](C(=O)N[C@@H](Cc1c[nH]c2ccccc12)C(=O)NCCO)C(C)C)C(C)C)C(C)C [compound 1751] (For-VGA[dL]A[dL]V[dL]W[dV]W[dL]W[dV]W-NHCH2CH2OH)
[reply] 0.0%
